List of Ki values.
Target sequence: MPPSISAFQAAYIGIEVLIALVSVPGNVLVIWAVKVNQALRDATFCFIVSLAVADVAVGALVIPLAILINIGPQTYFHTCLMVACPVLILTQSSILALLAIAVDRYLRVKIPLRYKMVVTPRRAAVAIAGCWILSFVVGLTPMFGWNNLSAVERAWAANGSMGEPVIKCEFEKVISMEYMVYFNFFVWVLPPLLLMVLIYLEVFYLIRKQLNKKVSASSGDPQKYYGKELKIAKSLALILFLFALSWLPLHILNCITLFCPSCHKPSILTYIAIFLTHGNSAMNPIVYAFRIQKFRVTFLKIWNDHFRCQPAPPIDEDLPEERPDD

CCCCn1cnc2c(N)ncnc21 :: > 100 µM
CC(C)Cn1cnc2ncnc(N)c21 :: > 100 µM
Nc1ncnc2nc(Br)[nH]c12 :: 33 µM
CC(C)Cn1c(Br)nc2c(N)ncnc21 :: 4.9 µM
CCC(C)n1cnc2c(N)ncnc21 (stereo unspecified) :: 34 µM

I am curious: what Ki value has been reported for `Nc1ncnc2c1ncn2C1CC1` ?
> 100 µM
